This listing pairs molecules with measured composite z-score.
# RUN DESCRIPTION: small-molecule binders of probe aNOTCH3, primary screen, biochemical, small-molecule microarray, 635/667 nm fluorescence (AID 1120);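 further: probe is a biotin-tagged antibody raised against NOTCH3 rather than NOTCH3 protein; score merges spot fluorescence near 667 nm with spot signal to noise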
# CONDITION INFO: higher = more signal
I'd appreciate a reply containing only the number, no unit.

The examples below pair each entry with its known result.
Ask: Tell me composite z-score reported for COCCOC(=O)N1C(=O)[C@@]2(c3cc(C#CC4(O)CCCCCC4)ccc31)[C@H](c1ccccc1OCCO)N1[C@H](c3ccccc3)[C@H](c3ccccc3)OC(=O)[C@H]1[C@@H]2C(N)=O
Result: 0.0282

Ask: Tell me composite z-score reported for CC1CC/C=C\[C@H]2OC34C=CCN(C(C)C)C(=O)[C@H]3N(CCCCCO)C(=O)[C@@H]4C2C(=O)O1 (stereo partly specified)
Result: -0.289

Ask: Tell me composite z-score reported for O=C(O)[C@H]1C[C@H]2C(=O)N3CCC[C@H]3C(=O)N2[C@H]1c1cccc(OCCO)c1
Result: -0.124

Ask: Tell me composite z-score reported for CN1C2C=C(CCCO)C(C3C(=O)N(C(N)=O)C(=O)C32)C1c1cccs1 (stereo unspecified)
Result: -0.179

Ask: Tell me composite z-score reported for CN(C)CCCCNC(=O)[C@H]1C[C@H]2C(=O)N[C@@H](CCCCN(C)C)C(=O)N2[C@H]1c1cccc(OCCO)c1
Result: 0.0691

Further cases:
Ask: Tell me composite z-score reported for CC(C)N1CC=CC23O[C@@H]4C=CCCOC(=O)C4[C@H]2C(=O)N(CCO)[C@@H]3C1=O (stereo partly specified)
Result: -0.305

Ask: Tell me composite z-score reported for CC(C)CN1C(=O)[C@@]2(Cc3ccccc31)c1ccccc1C(=O)N(Cc1ccccc1C(F)(F)F)[C@H]2c1ccc(CO)cc1
Result: -0.172

Ask: Tell me composite z-score reported for CN1C(=O)[C@@]2(CCS(=O)(=O)c3ccccc3)N=C(c3ccc(OCCCO)cc3)O[C@H]2c2ccccc21
Result: 0.058

Ask: Tell me composite z-score reported for COCCOC(=O)N1C(=O)[C@@]2(c3ccccc31)[C@H](C(=O)N1CCN(c3ncccn3)CC1)[C@H]1C(=O)O[C@H](c3ccccc3)[C@H](c3ccccc3)N1[C@@H]2c1ccc(OCCO)cc1
Result: 0.32

Ask: Tell me composite z-score reported for CCOC(=O)C[C@H]1[C@H](OC(=O)c2ccccc2-c2ccccc2)[C@@H](NC(=O)CC(C)C)c2cc(OCCCO)ccc2N1C(=O)c1ccc2ccccc2n1
Result: -0.0031

Ask: Tell me composite z-score reported for CCCCN1CC=CC23O[C@@H]4C=CCOC(=O)[C@@H]4[C@H]2C(=O)N(CCCO)[C@@H]3C1=O (stereo partly specified)
Result: -0.321

* * *

# TARGET OR SYSTEM: Alpha-bungarotoxin (Bungarus multicinctus) (UniProt P60615)
# Sequence (P60615 whole entry, looked up): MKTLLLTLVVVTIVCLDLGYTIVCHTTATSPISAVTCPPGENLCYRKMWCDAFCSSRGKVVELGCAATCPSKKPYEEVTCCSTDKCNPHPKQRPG
# RUN DESCRIPTION: alpha-bungarotoxin binders on microarray, profiling panel, artefact control for SMM control protein annotation, biochemical, small-molecule microarray, Alexa647 label, 635/667 nm fluorescence (AID 1117)
# CONDITION INFO: alpha-BTX-A647 binding fluorescence, higher = more signal
Kind request: treat 1 as inclusive, so composite z-score at 1 or higher is y, anything lower is n.

Ask: Please indicate if the recorded composite z-score for CCOC(=O)C1=CC[C@@H](c2ccccc2C(F)(F)F)N(S(=O)(=O)c2ccc(C)cc2)C1 meets or exceeds 1.
Result: y

Further cases:
Ask: Please indicate if the recorded composite z-score for COc1ccc([Si](C)(C)[C@H]2[C@H](CCn3cc([C@H](O)c4ccccc4)nn3)O[C@@]3(C(=O)N(Cc4cccc(N5C(=O)c6cccc7cccc5c67)c4)c4ccccc43)[C@@H]2C)cc1 meets or exceeds 1.
Result: n

Ask: Please indicate if the recorded composite z-score for O=C1O[C@@H](c2ccccc2)[C@@H](c2ccccc2)N2[C@@H](c3ccc(O)cc3)[C@]3(C(=O)Nc4ccc(C#CCCO)cc43)[C@@H](C(=O)NC[C@H](O)c3ccccc3)[C@H]12 meets or exceeds 1.
Result: n

Ask: Please indicate if the recorded composite z-score for CCOC(=O)C[C@H]1[C@H](OC(=O)c2ccccc2-c2ccccc2)[C@@H](NC(=O)CC(C)C)c2cc(OCCCO)ccc2N1C(=O)c1ccc2ccccc2n1 meets or exceeds 1.
Result: n

Ask: Please indicate if the recorded composite z-score for CC(C)CNC(=O)[C@@]1(c2ccc([N+](=O)[O-])cc2)CC(=O)N(C2CCCCC2)[C@@H]1c1ccc(CO)cc1I meets or exceeds 1.
Result: n

Ask: Please indicate if the recorded composite z-score for C[C@H]1C2=C3C(CC[C@H]4C(OCc5ccc(F)cc5C(F)(F)F)OC[C@](C)([C@@H]34)N(C(=O)OC(C)(C)C)C2)C2COC(=O)OCC21 (stereo partly drawn) meets or exceeds 1.
Result: n

Ask: Please indicate if the recorded composite z-score for CC(=O)N1Cc2ccccc2C[C@]2(N=C(c3ccc(OCCCO)cc3)O[C@@H]2c2ccccc2)C1=O meets or exceeds 1.
Result: y

Ask: Please indicate if the recorded composite z-score for COC(=O)C1(Cc2ccccc2)C=C2C(=C(C(C)C)C(=O)C2C)CN1 (stereo not drawn) meets or exceeds 1.
Result: n

Ask: Please indicate if the recorded composite z-score for O=C1O[C@@H](c2ccccc2)[C@@H](c2ccccc2)N2[C@@H](c3ccccc3OCCO)[C@]3(C(=O)Nc4ccc(C#CCCO)cc43)[C@@H](C(=O)Nc3nc4ccccc4s3)[C@H]12 meets or exceeds 1.
Result: y

Ask: Please indicate if the recorded composite z-score for NC(=O)NCC#Cc1ccc2c(c1)[C@]1(C(=O)N2)[C@H](c2ccc(O)cc2)N2[C@H](c3ccccc3)[C@H](c3ccccc3)OC(=O)[C@H]2[C@@H]1C(=O)Nc1nc2ccccc2s1 meets or exceeds 1.
Result: y

Ask: Please indicate if the recorded composite z-score for CC(C)CCC[C@@H](C)[C@H]1CC[C@@]2(C)C3=C(CC[C@]12C)[C@@]1(C)CC[C@H](OC(=O)c2ccc(Br)cc2)C(C)(C)C1CC3 (stereo partly drawn) meets or exceeds 1.
Result: n

Ask: Please indicate if the recorded composite z-score for C[C@@H](OCc1ccccc1)C1NC(=O)[C@@]23C(=O)N[C@@H](Cc4ccccc4)C2[C@H](C)[C@@]2(C)O[C@H]2C3/C=C/C/C=C\CNC(=O)CNC1=O (stereo partly drawn) meets or exceeds 1.
Result: n

Ask: Please indicate if the recorded composite z-score for C=C(C(=O)CC[C@H](OC(C)=O)c1cccc(OCCO)c1)C(C)C meets or exceeds 1.
Result: y
